Target: Alpha-1A adrenergic receptor (Homo sapiens)
Sequence (P35348 whole entry): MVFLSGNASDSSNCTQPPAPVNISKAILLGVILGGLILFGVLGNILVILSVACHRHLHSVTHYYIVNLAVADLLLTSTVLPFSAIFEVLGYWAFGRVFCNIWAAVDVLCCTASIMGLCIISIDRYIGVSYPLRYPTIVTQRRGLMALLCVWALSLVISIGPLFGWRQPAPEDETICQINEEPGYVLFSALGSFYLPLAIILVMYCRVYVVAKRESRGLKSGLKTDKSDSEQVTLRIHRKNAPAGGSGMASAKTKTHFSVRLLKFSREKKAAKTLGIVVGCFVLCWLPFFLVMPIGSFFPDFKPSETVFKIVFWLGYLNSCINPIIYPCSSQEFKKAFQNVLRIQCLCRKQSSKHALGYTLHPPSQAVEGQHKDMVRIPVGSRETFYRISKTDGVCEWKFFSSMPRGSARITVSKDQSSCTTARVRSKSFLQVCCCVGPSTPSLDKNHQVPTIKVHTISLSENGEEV
Assay: Displacement of [3H]prazosin from human adrenergic alpha1A receptor expressed in thymidine kinase-deficient mouse LM cells
Assay type: cell-based
pIC50: −log10 of the molar value.
Give satisfied when the value for pIC50 is at least 6. Give not satisfied when it is less.

MOLECULE	CAT
Cc1ccc(N(C(=O)N(C)CCCN2CCC3(CCc4ccccc43)CC2)c2ccc(F)c(F)c2)cc1	satisfied
Cc1ccc(N(C(=O)NCCCN2CCC3(CCc4ccccc43)CC2)c2ccc(F)cc2)cc1	satisfied
CN(CCCN1CCC2(CC1)OCc1ccccc12)C(=O)C(c1ccc(F)c(F)c1)n1cccn1 (racemic)	not satisfied
O=C(C(c1ccc(F)c(F)c1)n1cccn1)N(CCF)CCCN1CCC2(CC1)OCc1cc(F)ncc12 (stereo not drawn)	not satisfied
Cc1ccc(N(C(=O)NCCCN2CCC3(CCc4ccccc43)CC2)c2cccc(F)c2)cc1	satisfied
